# system name: human CD3 (human) (UniProt P07766)
# Sequence (P07766 23-207): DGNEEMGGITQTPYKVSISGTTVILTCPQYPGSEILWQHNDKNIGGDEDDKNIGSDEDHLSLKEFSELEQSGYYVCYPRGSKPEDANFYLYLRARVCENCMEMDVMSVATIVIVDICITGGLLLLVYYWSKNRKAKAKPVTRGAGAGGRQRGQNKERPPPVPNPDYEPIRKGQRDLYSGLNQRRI
# assay comment: cell-based or functional assay
measured quantity: Apo-One Apoptosis Assay, 50 ng/ml, second block (ratio to Fc null)
I only need the number, thanks.

Known Apo-One Apoptosis Assay, 50 ng/ml, second block (ratio to Fc null) results, listed for orientation:
- binder: "anti-CD3 HuFR antibody 8 (heavy chain BD20611, light chain BD21137) (antibody, part only; not given: few VH framework 4 residues, V domains shown, part only) VH, part: QVQLVESGAEVKKPGASVKVSCKASGYTFTRYTMHWVRQAPGKGLEWMGYINPSRGYTNYNQKFKDRLTISKDTSKNQVVLTMTNMDPVDTATYYCARYYDDHYCLDYVTVSSASTKGPS VL: DIQMTQSPSTLSASVGDRVTITCSASSSVSYMNWYQQKPGQPPKLLIYDTSKLASGVPSRFSGSGSGTDFTFTISSLQPEDIATYYCQQWSSNPFTFGQGTKVEIKFGQGTKVEIKR"
  reported: 2.1
- binder: "anti-CD3 HuFR antibody 5 (heavy chain BD20611, light chain BD21134) (antibody, part only; not given: Heavy stretch before framework 4, V domains shown, part only) VH, part: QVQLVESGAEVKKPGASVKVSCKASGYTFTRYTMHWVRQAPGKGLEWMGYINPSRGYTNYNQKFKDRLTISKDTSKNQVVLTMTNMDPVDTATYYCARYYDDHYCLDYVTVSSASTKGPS VL: EIVMTQSPATLSVSPGERATLSCSASSSVSYMNWYQQKPGQPPKLLIYDTSKLASGVPSRFSGSGSGTEFTLTISSLQPDDFATYYCQQWSSNPFTFGQGTKVEIKFGQGTKVEIKR"
  reported: 1.8
- binder: "anti-CD3 HuFR antibody 7 (heavy chain BD20611, light chain BD21136) (antibody, part only; not given: Heavy stretch before framework 4, V domains shown, part only) VH, part: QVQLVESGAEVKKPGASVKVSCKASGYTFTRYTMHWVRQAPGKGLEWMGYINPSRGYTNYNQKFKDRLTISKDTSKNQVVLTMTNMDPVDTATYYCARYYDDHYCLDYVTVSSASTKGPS VL: DIQMTQSPSTLSASVGDRVTITCSASSSVSYMNWYQQKPGKAPKLLIYDTSKLASGIPDRFSGSGSGTDFTLTISRLEPEDFAVYYCQQWSSNPFTFGQGTKVEIKFGQGTKVEIKR"
  reported: 4
- binder: "anti-CD3 HuFR antibody 6 (heavy chain BD20611, light chain BD21135) (antibody, part only; not given: Heavy stretch before framework 4, V domains shown, part only) VH, part: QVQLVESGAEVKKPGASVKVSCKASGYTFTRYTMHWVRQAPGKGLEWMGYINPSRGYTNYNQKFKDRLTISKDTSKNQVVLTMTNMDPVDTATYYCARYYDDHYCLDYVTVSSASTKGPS VL: EIVMTQSPATLSVSPGERATLSCSASSSVSYMNWYQQKPGQAPRLLIYDTSKLASGVPDRFSGSGSGTDFTLTISSLQAEDVAVYYCQQWSSNPFTFGQGTKVEIKFGQGTKVEIKR"
  reported: 2.9

I am curious: what Apo-One Apoptosis Assay, 50 ng/ml, second block (ratio to Fc null) value has been reported for anti-CD3 HuFR antibody 2 (heavy chain BD20613, light chain BD21131) (antibody, part only; not given: few VH framework 4 residues, V domains shown, part only) VH, part: QVQLQESGPGLVKPSETLSLTCAVSGYTFTRYTMHWVRQAPGKGLEWVGYINPSRGYTNYNQKFKDRFTISRDDSKNTAYLQMNSLKTEDTAVYYCTRYYDDHYCLDYVTVSSASTKGPS VL: DIQMTQSPSTLSASVGDRVTITCSASSSVSYMNWYQQKPGQAPRLLIYDTSKLASGVPDRFSGSGSGTDFTLKISRVEAEDVGVYYCQQWSSNPFTFGQGTKVEIKFGQGTKVEIKR ?
1.8
